Experiment: Excitation and fluorescence emission wavelength measurement
Assay type: physicochemical
Set-up: unit not given here
Conditions: aqueous solution: 10 mg/mL solution in DMSO diluted 500-fold with purified water

compound | Stokes shift (λem − λex)
COc1ccc(N2c3ccc(/C=C4\C(=O)N(c5ccccc5)N=C4C(=O)O)cc3C3CCCC32)cc1 (stereo not shown) [Dye 128] | 160
C=CCN1C(=O)/C(=c2\s/c(=C/c3ccc4c(c3)C3CCCC3N4c3ccccc3)c(=O)n2CC(=O)O)SC1=S (stereo not shown) [Dye 133] | 180
COc1cc(/C=C2\C(=O)ON=C2c2ccccc2)cc2c1N(c1ccccc1)C1CCCC21 (stereo not shown) [Dye 34] | 87
O=C(O)C1=NN(c2ccccc2)C(=O)/C1=C\c1ccc2c(c1)C1CCCC1N2c1ccc(Cc2ccccc2)cc1 (stereo not shown) [Dye 50] | 105

----------
Assay: Excitation and fluorescence emission wavelength measurement
Format: physicochemical
Conditions: aqueous solution: 10 mg/mL solution in DMSO diluted 500-fold with purified water
Description: It should be noted that the excitation wavelength and the fluorescence emission wavelength of the staining compound were determined by measuring an aqueous solution, which had been obtained by diluting 500-fold a 10 mg/mL solution of the staining compound in DMSO with purified water, with a fluorescence spectrophotometer FL 4500 manufactured by Hitachi High-Technologies Corporation.

molecule | Fluorescence emission wavelength λem / nm
CCN1c2ccc(/C=C/c3sc4ccccc4[n+]3CC(=O)O)cc2C2CCCC21 (stereo not shown) [Dye 124] | 618
CCN1C(=O)/C(=c2\s/c(=C/c3ccc4c(c3)C3CCCC3N4c3ccc(OC)cc3)c(=O)n2CC(=O)O)SC1=S (stereo not shown) [Dye 38] | 679
O=C(O)CN1C(=O)/C(=C\c2cc(Br)c3c(c2)C2CCCC2N3c2ccc(Br)cc2)SC1=S (stereo not shown) [Dye 2] | 609
COc1ccc2cc(N3c4ccc(/C=C5\C(=O)N(c6ccccc6)N=C5C(=O)O)cc4C4CCCC43)ccc2c1 (stereo not shown) [Dye 14] | 675
COc1ccc2cc(N3c4ccc(/C=C(\C#N)C(=O)O)cc4C4CCCC43)ccc2c1 (stereo not shown) [Dye 6] | 610
CCN1C(=O)/C(=c2\s/c(=C/c3ccc4c(c3)C3CCCC3N4c3ccc(C=C(c4ccccc4)c4ccccc4)cc3)c(=O)n2CC(=O)O)SC1=S (stereo not shown) [Dye 103] | 702
N#C/C(=C\c1ccc2c(c1)C1CCCC1N2c1ccc(C=C(c2ccccc2)c2ccccc2)cc1)C(=O)O (stereo not shown) [Dye 108] | 600

----------
Overview of recorded Fluorescence emission wavelength λem for various compounds
Test: Excitation and fluorescence emission wavelength measurement
Format: physicochemical
Settings: aqueous solution: 10 mg/mL solution in DMSO diluted 500-fold with purified water

compound | u | Fluorescence emission wavelength λem
O=C(O)C1=NN(c2ccccc2)C(=O)/C1=C\c1ccc2c(c1)C1CCCC1N2c1ccc(C=C(c2ccccc2)c2ccccc2)cc1 (stereo not shown) [Dye 51] | nm | 670
O=C(O)C1=NN(c2ccccc2)C(=O)/C1=C\c1ccc2c(c1)C1CCCC1N2c1ccc(Cc2ccccc2)cc1 (stereo not shown) [Dye 50] | nm | 586
O=C(O)Cn1c(=O)/c(=C\c2ccc3c(c2)C2CCCC2N3c2ccccc2)s/c1=C1/SC(=S)N(Cc2ccccc2)C1=O (stereo not shown) [Dye 66] | nm | 661
O=C(O)CCN1C(=O)/C(=C\c2ccc3c(c2)C2CCCC2N3c2ccccc2)SC1=S (stereo not shown) [Dye 129] | nm | 611
N#C/C(=C\c1ccc2c(c1)C1CCCC1N2Cc1ccccc1)C(=O)O (stereo not shown) [Dye 5] | nm | 580
CSc1ccc(N2c3ccc(/C=C(/C#N)C(=O)O)cc3C3CCCC32)cc1 (stereo not shown) [Dye 134] | nm | 600
O=C(O)Cn1c(=O)/c(=C\c2ccc3c(c2)C2CCCC2N3Cc2ccccc2)s/c1=C1/SC(=S)N(Cc2ccccc2)C1=O (stereo not shown) [Dye 11] | nm | 668

----------
Test: Excitation and fluorescence emission wavelength measurement
Type: physicochemical
Settings: aqueous solution: 10 mg/mL solution in DMSO diluted 500-fold with purified water

compound | u | Fluorescence emission wavelength λem
O=C(O)CN1C(=O)/C(=C\c2cc(Br)c3c(c2)C2CCCC2N3Cc2ccccc2)SC1=S (stereo not shown) | nm | 606
O=C(O)CN1C(=O)/C(=C\c2ccc3c(c2)C2CCCC2N3c2ccc(C=C(c3ccccc3)c3ccccc3)cc2)SC1=S (stereo not shown) | nm | 655
COc1ccc2cc(N3c4ccc(/C=C5\C(=O)N(c6ccc(C(=O)O)cc6)N=C5C)cc4C4CCCC43)ccc2c1 (stereo not shown) | nm | 649
CCN1C(=O)/C(=c2\s/c(=C/c3ccc4c(c3)C3CCCC3N4Cc3ccccc3)c(=O)n2CC(=O)O)SC1=S (stereo not shown) | nm | 657
CCN1C(=O)/C(=c2/s/c(=C/c3ccc4c(c3)C3CCCC3N4c3ccc(C=C(c4ccccc4)c4ccccc4)cc3)c(=O)n2CC(=O)O)SC1=S (stereo not shown) | nm | 673
CCN1C(=O)/C(=c2\s/c(=C/c3ccc4c(c3)C3CCCC3N4c3ccc(SC)cc3)c(=O)n2CC(=O)O)SC1=S (stereo not shown) | nm | 699
COc1ccc(N2c3ccc(/C=C4/SC(=S)N(CCC(=O)O)C4=O)cc3C3CCCC32)cc1 (stereo not shown) | nm | 651

----------
Assay: Excitation and fluorescence emission wavelength measurement
Assay type: physicochemical
Parameters: unit not given here
Settings: aqueous solution: 10 mg/mL solution in DMSO diluted 500-fold with purified water

molecule | Stokes shift (λem − λex)
N#C/C(=C\c1ccc2c(c1)C1CCCC1N2c1ccccc1)C(=O)O (stereo not shown) [Dye 105] | 79
O=C(O)C1=NN(c2ccccc2)C(=O)/C1=C\c1cc(Br)c2c(c1)C1CCCC1N2c1ccc(Br)cc1 (stereo not shown) | 55
COc1ccc2cc(N3c4ccc(/C=C5\C(=O)N(c6ccccc6)N=C5C(=O)O)cc4C4CCCC43)ccc2c1 (stereo not shown) | 65
O=C(O)CCN1C(=O)/C(=C\c2ccc3c(c2)C2CCCC2N3c2ccccc2)SC1=S (stereo not shown) [Dye 129] | 89
CCN1C(=O)/C(=c2\s/c(=C/c3ccc4c(c3)C3CCCC3N4c3cccc(SC)c3)c(=O)n2CC(=O)O)SC1=S (stereo not shown) | 150
CC[N+]1=C(C=c2s/c(=C/c3ccc4c(c3)C3CCCC3N4c3ccccc3)c(=O)n2CC(=O)O)C(C)(C)c2ccccc21 (stereo not shown) | 70
COc1ccc(N2c3ccc(/C=C4\C(=O)N(c5ccc(C(=O)O)cc5)N=C4C)cc3C3CCCC32)cc1 (stereo not shown) | 23

----------
Test: Excitation and fluorescence emission wavelength measurement
Assay type: physicochemical
Conditions: aqueous solution: 10 mg/mL solution in DMSO diluted 500-fold with purified water
Use True when the recorded Fluorescence emission wavelength λem is no lower than 600 nm; use False when it is lower.

compound | group
COc1ccc(N2c3ccc(/C=C4\Oc5ccc(I)cc5C4=O)cc3C3CCCC32)cc1 (stereo not shown) | True
COc1ccc2cc(N3c4ccc(/C=C/c5sc6ccccc6[n+]5CC(=O)O)cc4C4CCCC43)ccc2c1 (stereo not shown) | False
O=C1/C(=C/c2ccc3c(c2)C2CCCC2N3c2ccccc2)Oc2ccc(I)cc21 (stereo not shown) | False
CCN1c2ccc(/C=C3/SC(=S)N(CCC(=O)O)C3=O)cc2C2CCCC21 (stereo not shown) | True
C=CCN1C(=O)/C(=c2\s/c(=C/c3ccc4c(c3)C3CCCC3N4c3ccc(OC)cc3)c(=O)n2CC(=O)O)SC1=S (stereo not shown) | True
CCn1c(=O)/c(=C\c2ccc3c(c2)C2CCCC2N3c2ccccc2)s/c1=C1/SC(=S)N(CC(=O)O)C1=O (stereo not shown) | True
COc1ccc(N2c3ccc(/C=C4\C(=O)N(c5ccc(C(=O)O)cc5)N=C4C)cc3C3CCCC32)cc1 (stereo not shown) | True
COc1cc(/C=C2\C(=O)ON=C2c2ccccc2)cc2c1N(c1ccccc1)C1CCCC21 (stereo not shown) | True
CCN1C(=O)/C(=c2\s/c(=C/c3ccc4c(c3)C3CCCC3N4c3cccc(SC)c3)c(=O)n2CC(=O)O)SC1=S (stereo not shown) | True
COc1ccc(N2c3ccc(/C=c4/s/c(=C5/SC(=S)N(Cc6ccccc6)C5=O)n(CC(=O)O)c4=O)cc3C3CCCC32)cc1 (stereo not shown) | True
COc1ccc(N2c3ccc(/C=C/c4sc5ccccc5[n+]4CCC(=O)O)cc3C3CCCC32)cc1 (stereo not shown) | True
N#C/C(=C\c1cc(Br)c2c(c1)C1CCCC1N2Cc1cccc(Br)c1)C(=O)O (stereo not shown) | False
N#C/C(=C\c1ccc2c(c1)C1CCCC1N2c1ccccc1)C(=O)O (stereo not shown) [Dye 105] | False
CCCCN1C(=O)/C(=c2\s/c(=C/c3ccc4c(c3)C3CCCC3N4c3ccc(OC)cc3)c(=O)n2CC(=O)OCC)SC1=S (stereo not shown) | False
N#C/C(=C\c1ccc2c(c1)C1CCCC1N2c1ccccc1)C(=O)O (stereo not shown) [Dye 13] | False
O=C(O)CN1C(=O)/C(=C\c2ccc3c(c2)C2CCCC2N3c2ccccc2)SC1=S (stereo not shown) | True
CCN1C(=O)/C(=c2\s/c(=C/c3cc(Br)c4c(c3)C3CCCC3N4c3ccc(Br)cc3)c(=O)n2CC(=O)O)SC1=S (stereo not shown) | True
O=C(O)C[n+]1c(/C=C/c2cc(Br)c3c(c2)C2CCCC2N3c2ccccc2)sc2ccccc21 (stereo not shown) | True
C=CCN1C(=O)/C(=c2\s/c(=C/c3ccc4c(c3)C3CCCC3N4c3ccc(C=C(c4ccccc4)c4ccccc4)cc3)c(=O)n2CC(=O)OCC)SC1=S (stereo not shown) | True
O=C(O)CC[n+]1c(/C=C/c2ccc3c(c2)C2CCCC2N3c2ccc(C=C(c3ccccc3)c3ccccc3)cc2)sc2ccccc21 (stereo not shown) | True
O=C(O)CN1C(=O)/C(=C2C=C/C(=C\c3ccc4c(c3)C3CCCC3N4c3ccccc3)C\2)SC1=S (stereo not shown) | True
CC[N+]1=C(C=c2s/c(=C/c3ccc4c(c3)C3CCCC3N4c3ccccc3)c(=O)n2CC(=O)O)C(C)(C)c2ccccc21 (stereo not shown) | True
COc1ccc(N2c3ccc(/C=C4/SC(=S)N(CC(=O)O)C4=O)cc3C3CCCC32)cc1 (stereo not shown) | True
C=CCN1C(=O)/C(=c2\s/c(=C/c3ccc4c(c3)C3CCCC3N4c3ccccc3)c(=O)n2CC(=O)O)SC1=S (stereo not shown) | True
COc1ccc(N2c3ccc(/C=C4\C(=O)N(c5ccccc5)N=C4C(=O)O)cc3C3CCCC32)cc1 (stereo not shown) | True
COc1ccc(N2c3ccc(/C=C/c4sc5ccccc5[n+]4CC(=O)O)cc3C3CCCC32)cc1 (stereo not shown) | True
